Entries annotated with measured Bleeding time prolongation (%)
tested on: ICR mice; assay: Effect on in vivo bleeding time in mice (tail cut); details: 100 mg/kg i.g. once daily for 4 days
# unit: % | format: bare number

Known results for molecules:
molecule=CCOC(=O)CCCCCNC(=O)CCCCCNc1cc(=O)[nH]c(=O)[nH]1 measurementtype="Bleeding time prolongation (%)" value=28.40
molecule=CC(C)OC(=O)CCNC(=O)CCNc1cc(=O)n(Cc2ccccc2)c(=O)n1Cc1ccccc1 measurementtype="Bleeding time prolongation (%)" value=−13.30
molecule=CCOC(=O)[C@H](NC(=O)CCNc1cc(=O)n(C)c(=O)n1C)C(C)C measurementtype="Bleeding time prolongation (%)" value=−13.40
molecule="CCOC(=O)CCNC(=O)[C@@H](Nc1cc(=O)n(C)c(=O)n1C)C(C)CC (some centres unmarked)" measurementtype="Bleeding time prolongation (%)" value=48.80
molecule=Cn1c(NCCC(=O)NCCC(=O)OC2CC2)cc(=O)n(C)c1=O measurementtype="Bleeding time prolongation (%)" value=−13.60
molecule=Cc1cccc(C)c1OC(=O)CCNC(=O)CCNc1cc(=O)n(C)c(=S)n1C measurementtype="Bleeding time prolongation (%)" value=20.60

Challenge: Need Bleeding time prolongation (%), item Cn1c(=O)cc(NCCC(=O)NCCC(=O)Oc2ccccc2)n(Cc2cc(F)ccc2C#N)c1=O
Response given: −4.70

Challenge: Need Bleeding time prolongation (%), item CCOC(=O)CCNC(=O)[C@H](Nc1cc(=O)n(C)c(=O)n1C)C(C)CC (some centres unmarked)
Response given: 19.83
